# System: NCI-H23 lung
# Run description: NCI tumour cell line growth inhibition, 48 h
Documented TGI across a set of compounds

Example entries and their recorded answers appear below.
CC(C)c1ccc2[nH]c(O)c(C3=Nc4ccccc4C3=O)c2c1 = > 100 µM
COc1cc(-c2oc3c(OC)c(O)c(OC)c(O)c3c(=O)c2OC)ccc1O = > 100 µM
CCOC1C=CCCO1 (stereo not given) = > 100 µM
O=C(N/N=C\c1ccc(N(CCCl)CCCl)cc1Cl)c1cccnc1 = 54.9 µM

Field: next compound
Q: TGI lookup needed for COc1ccc2c(c1)CCCN1Cc3ccccc3CC21 (stereo not given) , thanks.
Ans: > 100 µM

----------
# Tested on: HCC-2998 colon
# Run description: NCI tumour cell line growth inhibition, 48 h
Experimental readout: TGI (µM)
# unit: µM | format: bare number

Example entries begin here.
CC1=C(C(=O)Nc2ccc(F)c(Cl)c2)C(c2cccc(Oc3ccccc3)c2)NC(=O)N1 (configuration not stated) = 27.8
CC(=O)N1C2=CCCC2(C)c2ccccc21 (configuration not stated) = 99.7
CCSC(=O)/C=C1\CN(C(=O)OC(C)(C)C)C1C(=O)OC(C)(C)C (configuration not stated) = 17.2
CC1/C(=N/Nc2ccc([N+](=O)[O-])cc2)CC2C3(C)CCC2(C(C)C(=O)O)C(=O)C13 (configuration not stated) = 51.7
CC(C)CCc1c(Cl)nc(Cl)nc1Cl = 64
CN(C)CCCNc1ccc2nnn3c4ccc(OC(=O)c5ccc([N+](=O)[O-])cc5)cc4c(=O)c1c23 = 25.5

Moving on to another compound below.
Q: Name the recorded TGI for CN1CCN(CCCCN2c3ccccc3Sc3ccc(N=[N+]=[N-])cc32)CC1 .
Ans: 18.3

----------
# Tested on: SW-620 colon
# Run description: NCI tumour cell line growth inhibition, 48 h
Experimental readout: TGI

Known results for molecules:
OC(CNc1ccnc2cc(Cl)ccc12)CNC1CCCCC1 (stereo unspecified) = 18.3 µM
COc1cc([C@@H]2OC(=O)C3C2C(=O)O[C@H]3c2cc(OC)c(OC)c(OC)c2)cc(OC)c1OC (stereo partly specified) = > 100 µM
OC(CNC1CCCC1)Cn1c2ccccc2c2ccccc21 (stereo unspecified) = > 100 µM
CN(C)CCCNc1ccc2nnn3c4ccc(OC(=O)c5ccc([N+](=O)[O-])cc5)cc4c(=O)c1c23 = 17 µM
COc1cccc(C[C@H]2COC(=O)[C@]2(O)Cc2cccc(OC)c2)c1 = > 100 µM

Read the next record carefully.
Q: Which value of TGI has been reported for Cc1ccc(S(=O)(=O)NC2=NS(=O)(=O)c3cc(C)c(Cl)cc3S2)cc1 in the records?
Ans: > 100 µM

----------
# Tested on: NCI-H226 lung
# Run description: NCI tumour cell line growth inhibition, 48 h
Each item that follows carries a reported TGI.

Some solved cases for reference:
CCOc1ccccc1NC(=O)C1=C(C)NC(C)=C(C(=O)Nc2ccccc2OCC)C1c1ccc(NC(C)=O)cc1 = > 100 µM
Clc1ccc(-c2nnc(C34CC5CC(CC(C5)C3)C4)o2)cc1 = > 100 µM
CCOC(=O)c1nc2ccccc2nc1Oc1ccc(OC)cc1 = > 100 µM
COc1ccc(/C(C)=N/NC(=O)c2ccncc2)cc1OC = > 10 µM

Q: Return reported TGI; argument: O/N=C1\CCc2cc3c(cc21)CCC3
Ans: > 100 µM

Q: I would be grateful if you could share the reported TGI for COC(=O)[C@@H](C)C[C@H](Cc1ccccc1)NC(=O)c1csc([C@@H](C[C@H](C(C)C)N(C)C(=O)C2(NC(=O)[C@H]3CCCCN3C)CC2)OC(C)=O)n1 .
Ans: > 33.3 µM

Q: What value of TGI has been reported for the following compound? CCOC1C=CCCO1 (stereo unspecified)
Ans: > 100 µM

----------
# Test system: XF 498 CNS
# Run description: NCI tumour cell line growth inhibition, 48 h
Let's look at some compounds and their measured TGI.

Example results:
O=c1n(CCCCn2c(=O)n(CC3CS3)c3ccccc32)c2ccccc2n1CC1CS1 (centres undefined) = 20.6 µM
COC1=CC(=O)[C@]2(C)[C@H](C1=O)C(C)[C@H]2c1ccccc1 (some centres undefined) = > 100 µM
C=CCCCCCC(O)C(O)C/C=C\C/C=C\CC (centres undefined) = > 18.8 µM

Q: Please report the recorded TGI for C/C(=N\O)C(CN1CCCCC1)C(c1ccccc1)c1c(O)c2ccccc2oc1=O (centres undefined) .
Ans: > 100 µM

----------
Each entry below lists one item and its recorded TGI value.
# Tested on: OVCAR-3 ovarian
# Run description: NCI tumour cell line growth inhibition, 48 h

Consider the worked cases shown below.
CN(C)/C=C/c1ccncc1 = > 100 µM
O=C(CC(C(=O)c1cccs1)c1ccsc1)c1ccco1 (stereo not given) = > 100 µM
CCN1C[C@]2(C)CC[C@H](OCc3ccccc3)C34C5C[C@@H]6CC[C@](O)(C(C[C@@H]32)C14)C5[C@H]6OCc1ccccc1 (stereo not given in full) = > 100 µM
O=C1C[C@@H]2CCCC[C@@H]2C12SCCS2 = > 100 µM

Q: For OVCAR-3 ovarian, provide TGI of CN(C)c1ccc(N=Nc2cccc3ncccc23)cc1 please.
Ans: > 100 µM

----------
# System: CAKI-1 renal
# Run description: NCI tumour cell line growth inhibition, 48 h
Experimental readout: TGI

Study these solved cases before continuing.
O=C(OC(/C=C/c1ccccc1)P1(=O)N(Cc2ccccc2)[C@@H]2CCCC[C@H]2N1Cc1ccccc1)c1ccccc1 (stereo not given in full) = > 100 µM
CCOC(=O)/C=C/c1c[nH]c(C(=O)OCC)c1 = > 100 µM
CCOC1C=CCCO1 (stereo not given) = > 100 µM
CN(C)CCNC(=O)c1cc(-c2nccn2C)nc2ccccc12 = > 100 µM

Q: May I ask what TGI has been recorded for COc1ccc(/C(C)=N/NC(=O)c2ccncc2)cc1OC ?
Ans: > 10 µM

----------
Measured TGI, listed per entry.
# Test system: HCT-116 colon
# Run description: NCI tumour cell line growth inhibition, 48 h

C=CCCCCCC(O)C(O)C/C=C\C/C=C\CC (stereo not given) = > 18.8 µM
CCOC(=O)NC(=O)c1cn(CCN2CCN(C(=O)NCCCCCCNC(=O)N3CCN(CCn4cc(C(=O)NC(=O)OCC)c(=O)n(CCN(CC)CC)c4=O)CC3)CC2)c(=O)n(CCC(CC)CC)c1=O = > 100 µM
CC1/C(=N/Nc2ccc([N+](=O)[O-])cc2)CC2C3(C)CCC2(C(C)C(=O)O)C(=O)C13 (stereo not given) = > 100 µM
COc1cc([C@@H]2OC(=O)C3C2C(=O)O[C@H]3c2cc(OC)c(OC)c(OC)c2)cc(OC)c1OC (stereo not given in full) = > 100 µM

Proceeding to the next compound to report its TGI.
Q: Can you share its TGI? I mean this compound: COc1ccc(CCc2ccccc2CC(=O)O)cc1
Ans: > 100 µM

----------
# System: SF-295 CNS
# Run description: NCI tumour cell line growth inhibition, 48 h
# TGI values compiled below

CC(=O)OCC1OC(n2c(C)c(C(C)=O)c(-c3cccc4ccccc34)c(C#N)c2=S)C(OC(C)=O)C(OC(C)=O)C1OC(C)=O (stereo not given) = > 100 µM
O=C(/C=C(\O)c1ccc(Cl)cc1)C(=O)NN=C(c1ccccc1)c1ccccc1 = > 100 µM
COC(=O)CC1(O)C(/C=C/c2ccccc2)C(C(=O)OC)C(=O)C(C(=O)OC)C1C(=O)OC (stereo not given) = > 100 µM

Q: Record request: TGI value, item CC12CC3CC(C1)CC(N=[N+]=[N-])(C3)C2
Ans: > 100 µM

Q: Which TGI value belongs to O=[N+]([O-])c1ccc(NC(=S)Nc2ccccn2)cc1 ?
Ans: > 100 µM

Q: So what does the record say about TGI for CC(C)CCCC(C)[C@H]1CC[C@H]2[C@@H]3CC[C@H]4C[C@@H](CCC=C(c5cc(Cl)c(O)c(C(=O)O)c5)c5cc(Cl)c(O)c(C(=O)O)c5)CC[C@]4(C)[C@H]3CC[C@]12C (stereo not given in full) (tested in a mixture with another compound) ?
Ans: > 50 µM

Q: Which TGI is listed for O=C(CN1CCOCC1)Nc1ccc2c(c1)C1Oc3ccccc3CC1CO2 (stereo not given) ?
Ans: > 100 µM

Q: I have this compound here, Cc1cc(=O)oc2cc(OCc3nc4ccccc4c(=O)[nH]3)ccc12 , and I need its recorded TGI.
Ans: > 100 µM

Q: Item under review: CN(C)/C=C/c1ccncc1 . Reported TGI?
Ans: > 100 µM

Q: Param item = O=C(n1c(=O)n(-c2ccc(Cl)cc2)c(=O)n1C(=O)C(Cl)(Cl)Cl)C(Cl)(Cl)Cl ; retrieve measured TGI.
Ans: > 100 µM
